Quick list: inhibition per entry.
# assayed_target: FAD-linked sulfhydryl oxidase ALR (Homo sapiens)
# experimental_details: ALR-catalysed DTT oxidation blockers – biochemical, H2O2 detection, HRP-luminol luminescence, single point, primary screen (AID 485317)
# condition_description: purified ALR, stronger effect = higher value, concentration not given here
The campaign covered roughly 290,000 compounds. About 11,000 (3.8%) were called active. Many of the other results were omitted from the sample, so actives are more common in it than they were.
# unit: % | format: bare number

O=C(COC(=O)C1(c2ccc(F)cc2)CCCC1)N1CCNC1=O | 1.5

Please look up its inhibition: Cc1cccn2cc(-c3cccc(S(=O)(=O)N4CCCCC4)c3)nc12 90.9

Please look up its inhibition: O=S(=O)(c1cccc(-c2nnc3n2CCCCC3)c1)N1CCOCC1 -3.91

Please look up its inhibition: CC(=O)c1c(C)[nH]c(C(=O)CN2C(=O)NC(C)(C)C2=O)c1C 0.194

Please look up its inhibition: COc1ccc(-n2ncc3c(SCC(=O)NNC(C)=O)ncnc32)cc1 -1.15

Please look up its inhibition: O=C(Nc1ccc(NC(=O)c2ccccc2F)cc1)c1ccccc1F -9.75

Please look up its inhibition: O=C(NCc1ccc2c(c1)OCO2)c1cc([N+](=O)[O-])ccc1N1CCOCC1 -3.3

Please look up its inhibition: CCN(CC(=O)Nc1ccc(NC(C)=O)cc1)C(=O)CSC(=S)N1CCCC1 -0.0599

Please look up its inhibition: CCN1CCN(Cc2nc3c(c(=O)n(C)c(=O)n3C)n2CC(=O)c2ccccc2)CC1 98.2

Please look up its inhibition: CN(C)S(=O)(=O)c1cccc(-c2nn(-c3ccccc3)cc2/C=C2\SC(=S)N(CC(=O)O)C2=O)c1 95.8

Please look up its inhibition: Cc1ccc2c(CSc3nncs3)cc(=O)oc2c1 -0.57

Please look up its inhibition: CC1CCCN(Cc2nc3c(c(=O)n(C)c(=O)n3C)n2CC(=O)c2ccccc2)C1 (stereo not drawn) -8.6

Please look up its inhibition: COc1ccccc1N1CCC(N2CCN(CC(C)(C)C)C(CCO)C2)CC1 (stereo not drawn) 21.8

Please look up its inhibition: Cc1ccc(OCC(=O)Oc2ccccc2[N+](=O)[O-])cc1 8.6

Please look up its inhibition: O=C(CN1C(=O)c2ccccc2S1(=O)=O)NC1CCCCC1 -2.86

Please look up its inhibition: COc1ccc(-c2nnc(SCC(=O)c3ccco3)n2-c2ccccc2)cc1 -5.92

Please look up its inhibition: O=C(CNC(=O)c1ccco1)NNC(=O)c1ccc(Br)cc1 -12.3

Please look up its inhibition: CC1CC(=NNC(=O)C2COc3ccccc3O2)CC(C)(C)C1 (stereo not drawn) 14.3

Please look up its inhibition: CCCc1nc2c(c(=O)c3ccccc3n2C)c(=O)n1-c1cc(C)cc(C)c1 9.11

* * *

# assayed_target: FAD-linked sulfhydryl oxidase ALR (Homo sapiens) (UniProt P55789)
# Sequence (P55789 whole entry, looked up): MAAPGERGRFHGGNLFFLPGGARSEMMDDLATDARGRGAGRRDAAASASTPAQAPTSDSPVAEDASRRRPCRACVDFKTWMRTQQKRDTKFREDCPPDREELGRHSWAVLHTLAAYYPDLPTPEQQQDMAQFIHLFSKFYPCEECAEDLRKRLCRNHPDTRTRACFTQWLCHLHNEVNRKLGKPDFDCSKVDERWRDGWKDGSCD
# experimental_details: ALR-catalysed DTT oxidation blockers – biochemical, H2O2 detection, HRP-luminol luminescence, single point, primary screen (AID 485317)
# condition_description: purified ALR, concentration not given here
In all, about 290,000 compounds went through this assay and about 11,000 (3.8%) were called active.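 Rule for the calls: active = mean replicate inhibition above about 79%, with every replicate also reaching it (limit read from the data); inconclusive = only one of the two criteria met; inactive = mean below limit and not every replicate reaching it.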 The sample holds actives, similar compounds and a random draw of the others, so the mix is not that of the screen.
Respond only with the outcome that fits, drawn from active, inactive

Some solved entries appear below for comparison.
CCN(C(=O)CSc1cccc[n+]1[O-])c1ccccc1 | inactive
NS(=O)(=O)c1ccc(NC(=O)COC(=O)CCc2c[nH]c3ccccc23)cc1 | inactive
O=C(Nc1ccc(F)cc1)N1CCCC(c2nc3c(nnn3Cc3ccccc3Cl)c(=O)[nH]2)C1 (stereo unspecified) | inactive

Outcome? O=C(Nc1cc(S(=O)(=O)N2CCOCC2)ccc1N1CCOCC1)c1c(F)cccc1Cl inactive

Outcome? CCC(=O)Nc1ccc(C(=O)CSc2nnc(CNc3ccc(Cl)cc3)o2)cc1OC inactive
